Molecular target: rec. HDAC-1 purified from HEK 293 cells (Homo sapiens)
Construct: made in house; host or cells: HEK 293 cells
Sequence (Q13547 whole entry): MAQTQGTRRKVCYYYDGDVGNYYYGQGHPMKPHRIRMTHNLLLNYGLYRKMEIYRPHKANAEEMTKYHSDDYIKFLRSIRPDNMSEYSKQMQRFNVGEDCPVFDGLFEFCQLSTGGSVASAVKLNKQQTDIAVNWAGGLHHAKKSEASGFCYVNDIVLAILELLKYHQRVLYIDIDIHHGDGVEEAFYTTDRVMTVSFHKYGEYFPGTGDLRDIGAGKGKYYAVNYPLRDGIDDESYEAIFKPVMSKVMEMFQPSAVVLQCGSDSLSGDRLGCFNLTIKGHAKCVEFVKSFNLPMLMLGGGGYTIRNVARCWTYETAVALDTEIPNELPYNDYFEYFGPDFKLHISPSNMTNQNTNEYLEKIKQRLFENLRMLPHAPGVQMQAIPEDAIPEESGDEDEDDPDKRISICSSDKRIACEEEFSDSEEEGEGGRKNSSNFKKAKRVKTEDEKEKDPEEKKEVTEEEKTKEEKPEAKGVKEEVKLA
Test: Assay for inhibition of histone deacetylase (HDAC), quenched peptide / Lys C fluorescence
Format: biochemical
Details: 10 concentrations starting at 30 uM, 90 min incubation
quantityName: IC50 (µM)

{"columns": ["smilesEntry", "quantityName", "valueUnits", "valueReported"],
 "data": [
  ["Nc1ccccc1NC(=O)c1cscn1", "IC50", "µM", 11.1]
]}
